experiment: viability loss with induced miR-34 in A549 – imaging, A549 dox-inducible miR-34, nuclei and caspase counts, primary screen (AID 1347080); settings: A549 miR-34 inducible, Hoechst nuclei count, 48 h; measured here: total cells without miR-34 induction; also: test concentration not given here
Catalogue of cell count readings, one per entry.

compound	cell count
CC(=O)O[C@@]12COC1CC(O)[C@@]1(C)C(=O)C(O)C3=C(C)C(OC(=O)C(O)C(NC(=O)OC(C)(C)C)c4ccccc4)C[C@](O)(C(OC(=O)c4ccccc4)C21)C3(C)C (stereo partly specified)	2990
O=c1[nH]cnc2sc3c(c12)CCCC3	9560
CCCCS(=O)(=O)CCC(=O)O	9470
COc1cc2c(cc1Cc1cccc(Cl)c1F)c(=O)c(C(=O)O)cn2C(CO)C(C)C (stereo unspecified)	6500
OCCN1C[C@@H](O)[C@@H](O)C(O)C1CO (stereo partly specified)	14000
CCCCCCC/C=C\CCCCCCCCC(=O)O	10100
COc1cc2c(cc1OC)-c1[nH]nc(Nc3cccc(F)c3)c1C2	1100
COc1cc(N2CCN(Cc3ccccc3F)C(=O)C2)ncn1	7990
COc1cc(C=CC(=O)N2CCN(CC(=O)N3CCCC3)CC2)cc(OC)c1OC	8570
CCOC(=O)C(CCc1ccccc1)NC(C)C(=O)N1CCCC1C(=O)O (stereo unspecified)	7880
CN(C)C(=O)c1cc(-c2[nH]ncc2-c2ccccc2)c[nH]1	8680
O=C(Nc1nncs1)NC1Cc2ccccc2C1	9340
CN(C)CC(O)Cn1c2ccc(Br)cc2c2cc(Br)ccc21 (stereo unspecified)	272
CC(O)[C@H]1C(=O)N2C(C(=O)OCOC(=O)C(C)(C)C)=C(SC3CN(C4=NCCS4)C3)C(C)[C@@H]12 (stereo partly specified)	9530
CC(C)C(=O)Oc1ccc(CO)cc1C(CCN(C(C)C)C(C)C)c1ccccc1 (stereo unspecified)	8760
Cc1onc(-c2c(F)cccc2Cl)c1C(=O)N[C@@H]1C(=O)N2C(C(=O)O)C(C)(C)S[C@H]12 (stereo partly specified)	9240
N#C/C(=C\c1ccc(O)c(O)c1)C(=O)c1ccc(O)c(O)c1	9340
COC(=O)c1ccc(=O)c2nc3/c(=C/O)c(O)cc(=O)c3[nH]c12	3400
Cc1c(Cl)cccc1Nc1ncccc1C(=O)O	9560
Cc1c(O)cccc1C(=O)NC(CSc1ccccc1)C(O)CN1C[C@H]2CCCC[C@H]2CC1C(=O)NC(C)(C)C (stereo partly specified)	7710
S=C(NC1CCCCC1)N1CCC(C2C=NC=N2)CC1 (stereo unspecified)	9620

The origin of these recorded values is PubChem BioAssay.
